assay: Aqueous solubility of the compound in pH 7.5 Tris buffer after 24 hrs by HPLC method; assay type: physicochemical
Field: solubility at 24 h. Provide a value for each of the compounds that follow.
Answers are plain numbers, in µg/mL.

The following compounds have reported results that may help.
>>> quantitative_result("CCN(CC)CCCn1c2c(c3ccccc3c1=O)C(=O)C(=O)c1cc(C)oc1-2")
15700
>>> quantitative_result("Cc1cccc2c3c(ccc12)-c1occ(CN(C)C)c1C(=O)C3=O.Cl")
8030

Now for the compound whose solubility at 24 h we want.
Ask: Reported solubility at 24 h for Cc1cccc2c3c(ccc12)C1=C(C(=O)C3=O)C(O)C(C)(C)O1 (centres undefined) : what is it?
Result: 90
